tested on: PPARγ; assay: PPARγ mRNA expression in adipocytes (real-time PCR); assay type: cell-based, human; details: differentiating adipocytes transfected with oligomeric compound; Table 75
In the oligonucleotide strings, read from the 5' end, every base follows the letter of its sugar. An asterisk marks phosphorothioate; unmarked linkages are phosphodiester. Other units and linkages are bracketed, terminal groups are in braces. A string of capitals states the bases alone. e = 2'-O-(2-methoxyethyl) (MOE); [5mC] = 5-methylcytosine
ASSAY_ENDPOINT: PPAR gamma mRNA

327912 (antisense eA*eA*e[5mC]*eT*eA*eT*eA*e[5mC]*eA*eA*eT*e[5mC]*eT*eA*e[5mC]*eT*eA*e[5mC]*e[5mC]*eT*e[5mC]*eA) [compound 327912] | 78 percentage of untreated control (UTC)
348117 (GAACCCACAAUCCCUGGCUUA; all 2'-MOE, all phosphorothioate, methylation of C and T or U not given here) [compound 348117] | 65 percentage of untreated control (UTC)
344277 (antisense AAUACAUACUUCUUUACAUUCCA; all 2'-MOE, all phosphorothioate, methylation of C and T or U not given here) [compound 344277] | 68 percentage of untreated control (UTC)

// next item, PPAR gamma mRNA requested
What value of measured PPAR gamma mRNA is listed for 327964 (antisense e[5mC]*e[5mC]*eA*eA*eG*eT*eT*e[5mC]*eT*eG*eT*e[5mC]*eA*eT*eG*e[5mC]*eA*e[5mC]*eT*eG*eA) [compound 327964] ?
93 percentage of untreated control (UTC)

====

Tested on: HSL
Test: HSL mRNA expression in adipocytes (real-time PCR)
Assay type: cell-based, human
Details: differentiating adipocytes transfected with oligomeric compound
Experimental: Expression of the four hallmark genes, HSL, aP2, Glut4, and PPARγ, is also measured in adipocytes transfected with oligomeric compounds of the invention. Cells are lysed on day nine post-transfection and total RNA is harvested. The amount of total RNA in each sample is determined using a Ribogreen Assay (Invitrogen Life Technologies, Carlsbad, Calif.). […]
In the oligonucleotide strings, read from the 5' end, every base follows the letter of its sugar. An asterisk marks phosphorothioate; unmarked linkages are phosphodiester. Other units and linkages are bracketed, terminal groups are in braces. A string of capitals states the bases alone. e = 2'-O-(2-methoxyethyl) (MOE); [5mC] = 5-methylcytosine; d = 2'-deoxy (DNA)
ASSAY_ENDPOINT: HSL mRNA

328112 (antisense eA*eT*e[5mC]*eA*eT*eT*eA*e[5mC]*eT*eG*eG*eA*eT*eT*eG*e[5mC]*eT*eG*eT*eA*eA) [compound 328112] | 89 percentage of untreated control (UTC)
327928 (antisense eA*eA*e[5mC]*e[5mC]*eG*eA*eT*eT*eT*e[5mC]*eA*eG*eA*eT*eG*eG*eT*eG*e[5mC]*eT*eA*eG) [compound 327928] | 52 percentage of untreated control (UTC)

What value of measured HSL mRNA is listed for 328400 (antisense eA*eG*eT*eT*e[5mC]*dA*dA*dA*dA*d[5mC]*dT*d[5mC]*dA*dA*dT*e[5mC]*e[5mC]*e[5mC]*eA*eA) [compound 328400] ?
40 percentage of untreated control (UTC)

Please give the result for 328417 (antisense eT*eA*eA*eT*eT*dT*dT*dA*dG*dA*dA*dT*d[5mC]*dT*dT*eA*eA*e[5mC]*eG*e[5mC]) [compound 328417] too.
98 percentage of untreated control (UTC)

Please give the result for 327956 (antisense e[5mC]*eA*e[5mC]*eA*eG*eT*eT*eG*e[5mC]*e[5mC]*eA*eG*e[5mC]*eT*eG*eA*eG*eA*eT*eT*eA) [compound 327956] too.
90 percentage of untreated control (UTC)

====

test system: PEPCK-c; assay: PEPCK-c mRNA expression in HepG2 cells; format: cell-based, human; conditions: Experiment 4, insulin-sensitization: HepG2 cells treated with 1 nM insulin for four hours, 48 h post-transfection; mRNA by real-time PCR
In the oligonucleotide strings, read from the 5' end, every base follows the letter of its sugar. An asterisk marks phosphorothioate; unmarked linkages are phosphodiester. Other units and linkages are bracketed, terminal groups are in braces. A string of capitals states the bases alone. e = 2'-O-(2-methoxyethyl) (MOE); [5mC] = 5-methylcytosine; d = 2'-deoxy (DNA)
ASSAY_ENDPOINT: PEPCK-c (% UTC)
Please reply with the bare figure in % UTC and do not write the unit itself.

Recorded results for 3 substances are shown here.
328773 (antisense eT*eA*e[5mC]*eT*eT*dT*dA*d[5mC]*dT*d[5mC]*d[5mC]*dA*dA*dG*dG*eT*eT*eT*eT*eA) [compound 328773] | 93
341813 (antisense AGACACGTGCACTGTAGA; all 2'-MOE, all phosphorothioate, methylation of C not given here) [compound 341813] | 88
186515 (antisense eA*eG*eG*eT*eA*dG*d[5mC]*dT*dT*dT*dG*dA*dT*dT*dA*eT*eG*eT*eA*eA) [compound 186515] | 40

Any idea what PEPCK-c (% UTC) came out for 328765 (antisense eG*eA*e[5mC]*eA*eA*dA*d[5mC]*dT*d[5mC]*dA*dG*d[5mC]*dT*dA*dT*eA*eT*eT*eG*eT) [compound 328765] on PEPCK-c?
73

====

tested on: HuVECs; experiment: Endothelial tube formation assay in HuVECs; details: 75 nM oligomeric compound, Table 56
In the oligonucleotide strings, read from the 5' end, every base follows the letter of its sugar. An asterisk marks phosphorothioate; unmarked linkages are phosphodiester. Other units and linkages are bracketed, terminal groups are in braces. A string of capitals states the bases alone. e = 2'-O-(2-methoxyethyl) (MOE); [5mC] = 5-methylcytosine
ASSAY_ENDPOINT: % Activity Relative to UTC (tube formation) (%)
Please reply with the bare figure in % and do not write the unit itself.

Recorded results for 3 substances are shown here.
327877 (antisense e[5mC]*eG*e[5mC]*e[5mC]*eA*eA*eT*eA*eT*eT*eT*eA*e[5mC]*eG*eT*eG*e[5mC]*eT*eG*e[5mC]*eT*eA) [compound 327877] | 78.6
327884 (antisense eG*e[5mC]*eA*eA*eA*eA*eA*eT*eG*eT*eG*e[5mC]*eT*eA*eG*eT*eG*e[5mC]*e[5mC]*eA*eA*eA) [compound 327884] | 78.6
327898 (antisense eG*eT*eA*eG*eT*eG*e[5mC]*eT*eT*eT*e[5mC]*eT*eA*e[5mC]*eT*eT*eT*eA*eT*eG) [compound 327898] | 100.0

Any idea what % Activity Relative to UTC (tube formation) came out for 327882 (antisense eT*e[5mC]*eA*e[5mC]*eT*eT*eT*eT*eG*eT*eG*eA*e[5mC]*eT*eA*eT*eG*e[5mC]*eA*eA) [compound 327882] on HuVECs?
107.1

Please give the result for 327878 (antisense e[5mC]*eT*eA*eG*eT*eG*eG*eT*e[5mC]*e[5mC]*eT*eA*eA*eA*e[5mC]*eA*eT*eT*eT*e[5mC]*eA*e[5mC]) [compound 327878] too.
57.1

====

system: HeLa cells; test: Cell cycle assay in HeLa cells; type: cell-based, human; conditions: HeLa cells, 150 nM, 48 hours, relative to untreated control
In the oligonucleotide strings, read from the 5' end, every base follows the letter of its sugar. An asterisk marks phosphorothioate; unmarked linkages are phosphodiester. Other units and linkages are bracketed, terminal groups are in braces. A string of capitals states the bases alone. e = 2'-O-(2-methoxyethyl) (MOE); [5mC] = 5-methylcytosine; d = 2'-deoxy (DNA)
ASSAY_ENDPOINT: % cells in cell cycle phase subG1 (%)
Please reply with the bare figure in % and do not write the unit itself.

Recorded results for 4 substances are shown here.
341787 (antisense CACAGGTTAAAGGGTCTCAGGGA; all 2'-MOE, all phosphorothioate, methylation of C not given here) [compound 341787] | 324
327902 (antisense eG*eG*e[5mC]*eT*eG*eT*e[5mC]*eA*eA*eT*eT*e[5mC]*eA*eT*eA*eG*eG*eT*e[5mC]*eA*eG) [compound 327902] | 94
338833 (antisense TCGTGCACCTGAGGAGTCTG; all 2'-MOE, all phosphorothioate, methylation of C not given here) [compound 338833] | 255
328759 (antisense eG*eA*eG*eG*eG*dA*dT*dT*dG*dT*dA*dT*dG*dA*dA*e[5mC]*eA*eT*e[5mC]*eT) [compound 328759] | 797

What value of measured % cells in cell cycle phase subG1 is listed for 338678 (antisense CTGGTTGGGTATGAGACAGA; all 2'-MOE, all phosphorothioate, methylation of C not given here) [compound 338678] ?
129

Please give the result for 338836 (antisense TCCTCGGTGGCAGAGCTCAG; all 2'-MOE, all phosphorothioate, methylation of C not given here) [compound 338836] too.
303

Please give the result for 345395 (AAGGGATTCCTGGGAAAACTGGAC; sugars from the 5' end e5 d10 e9, all phosphorothioate, methylation of C not given here) [compound 345395] too.
87

Please give the result for 328403 (antisense eA*eG*eG*e[5mC]*e[5mC]*dT*dA*dT*dT*d[5mC]*d[5mC]*dT*dG*dT*dA*eG*e[5mC]*eA*eA*eA) [compound 328403] too.
89

Please give the result for 340350 (antisense TGCTCAATAAATACCCGTTGAA; all 2'-MOE, all phosphorothioate, methylation of C not given here) [compound 340350] too.
132

Please give the result for 327896 (antisense eA*e[5mC]*eA*eG*eT*eT*e[5mC]*eT*eT*e[5mC]*eA*eA*e[5mC]*eT*eG*eG*e[5mC]*eA*eG*e[5mC]*eT*eT) [compound 327896] too.
95

Please give the result for 25690 (antisense eA*eT*e[5mC]*e[5mC]*e[5mC]*dT*dT*dT*d[5mC]*dT*dT*d[5mC]*d[5mC]*dG*d[5mC]*eA*eT*eG*eT*eG) [compound 25690] too.
64
